# Target: T1, recombinant human IP-10 (hIP-10) (human, UniProt P02778 22-98)
# T1 sequence (looked up): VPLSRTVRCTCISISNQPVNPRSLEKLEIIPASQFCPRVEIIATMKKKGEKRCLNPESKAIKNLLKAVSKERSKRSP
# Method: cell-based or functional assay
Property measured: Calcium flux IC50 (nM); 10 nM hIP-10; hCXCR3 L1.2 cells
Give bare numbers, in nM.

INSERT INTO assay_data (binder, readout_number) VALUES
  ('CB1R3P4_D3, scFv format (scFv) QVQLVQFGGGVVQPGRSLRLSCAASGFTFSSYGMHWVRQAPGKGLEWVAVISYDGSIKYYADSVKGRFTISRENAKNSVYLQMDSLRVGDTAVYYCTRAGYSTDWHPDYWGQGTMVTVSSSSELTQDPAVSVALGQTVRITCQGDSLRSYYASWYQQKPGQAPVLAIYGKNNRPSGIPDRFSGSSSGNTASLTITGAQAEDEADYYCNSRDSSGNHVVFGGGTKLTVL', 179);

Kindly review the next binder as well.
Value of measured Calcium flux IC50 (nM); 10 nM hIP-10; hCXCR3 L1.2 cells for the entry CC21R3P3_C1, scFv format (scFv) QVQLVESGGGVVQPGRSLRLSCAASGFTFSSYGMHWVRQAPGKGLEWVAVISYDGSIKYYADSVKGRFTISRDNSRNTLYLQMNSLRPEDTAVYYCAKDWGFSGSLTFDYWGQGTMVTVSSSYVLTQPPSVSVAPGKTARITCGGNNIGSKSVHWYQQKPGQAPVLVIYYDSDRPSGIPERFSGSNSGNTATLTISRVEAGDEADYYCQVWDSSSDHVVFGGGTKVTVL : 71
